Each recorded value in this set is attributed to patent US9328122B2.

# System: Becap-37 (human breast cancer) cells
# experiment_summary: MTT cell growth inhibition, solid tumor cells
# Format: cell-based
# test_conditions: Homo sapiens; Becap-37, 72 h, MTT; read-out: IC50

| molecule | readout_units | IC50 |
| --- | --- | --- |
| C=CCOc1c(OC)cc2c3c1Oc1cc4c(cc1OC)CCN(C)[C@H]4Cc1ccc(cc1)Oc1cc(ccc1OC)C[C@@H]3N(C)CC2 [BS-FC-213] | µg/mL | 2.54 |
| COc1ccc2cc1Oc1ccc(cc1)C[C@H]1c3cc(c(OC)cc3CCN1C)Oc1c(OCC(O)CNCC3CC3)c(OC)cc3c1[C@H](C2)N(C)CC3 (stereo partly drawn) [BS-FC-405] | µg/mL | 0.74 |
| C=CCN(C)CC(O)COc1c(OC)cc2c3c1Oc1cc4c(cc1OC)CCN(C)[C@H]4Cc1ccc(cc1)Oc1cc(ccc1OC)C[C@@H]3N(C)CC2 (stereo partly drawn) [BS-FC-409] | µg/mL | 1.44 |
| COc1ccc2cc1Oc1ccc(cc1)C[C@H]1c3cc(c(OC)cc3CCN1C)Oc1c(OCC(O)CN3CCSCC3)c(OC)cc3c1[C@H](C2)N(C)CC3 (stereo partly drawn) [BS-FC-417] | µg/mL | 2.42 |
| COc1ccc2cc1Oc1ccc(cc1)C[C@H]1c3cc(c(OC)cc3CCN1C)Oc1c(OC(=O)C3CC3)c(OC)cc3c1[C@H](C2)N(C)CC3 [BS-FC-304] | µg/mL | 3.15 |
| COc1ccc2cc1Oc1ccc(cc1)C[C@H]1c3cc(c(OC)cc3CCN1C)Oc1c(OCC(O)CN3CCCCC3)c(OC)cc3c1[C@H](C2)N(C)CC3 (stereo partly drawn) [BS-FC-403] | µg/mL | 0.59 |
| C=C(C)COc1c(OC)cc2c3c1Oc1cc4c(cc1OC)CCN(C)[C@H]4Cc1ccc(cc1)Oc1cc(ccc1OC)C[C@@H]3N(C)CC2 [BS-FC-221] | µg/mL | 1.91 |
| COc1ccc2cc1Oc1ccc(cc1)C[C@H]1c3cc(c(OC)cc3CCN1C)Oc1c(OCc3ccc(C(F)(F)F)cc3)c(OC)cc3c1[C@H](C2)N(C)CC3 [BS-FC-216] | µg/mL | 3.36 |
| COc1ccc2cc1Oc1ccc(cc1)C[C@H]1c3cc(c(OC)cc3CCN1C)Oc1c(OC3CCCC3)c(OC)cc3c1[C@H](C2)N(C)CC3 [BS-FC-220] | µg/mL | 3.19 |
| COc1ccc2cc1Oc1ccc(cc1)C[C@H]1c3cc(c(OC)cc3CCN1C)Oc1c(OCc3cccc(F)c3F)c(OC)cc3c1[C@H](C2)N(C)CC3 [BS-FC-204] | µg/mL | 4.87 |
| COc1ccc2cc1Oc1ccc(cc1)C[C@H]1c3cc(c(OC)cc3CCN1C)Oc1c(OCC(O)CN3CCCC(C)C3)c(OC)cc3c1[C@H](C2)N(C)CC3 (stereo partly drawn) [BS-FC-410] | µg/mL | 0.73 |
| COc1ccc2cc1Oc1ccc(cc1)C[C@H]1c3cc(c(OC)cc3CCN1C)Oc1c(OCC3CC3)c(OC)cc3c1[C@H](C2)N(C)CC3 [BS-FC-208] | µg/mL | 2.35 |
| COc1ccc2cc1Oc1ccc(cc1)C[C@H]1c3cc(c(OC)cc3CCN1C)Oc1c(OS(=O)(=O)c3ccc(C)cc3)c(OC)cc3c1[C@H](C2)N(C)CC3 [BS-FC-102] | µg/mL | 2.49 |
| COc1ccc2cc1Oc1ccc(cc1)C[C@H]1c3cc(c(OC)cc3CCN1C)Oc1c(OC(=O)c3c(F)cccc3Cl)c(OC)cc3c1[C@H](C2)N(C)CC3 [BS-FC-315] | µg/mL | 2.1 |
| COc1cc(OC)cc(C(=O)Oc2c(OC)cc3c4c2Oc2cc5c(cc2OC)CCN(C)[C@H]5Cc2ccc(cc2)Oc2cc(ccc2OC)C[C@@H]4N(C)CC3)c1 [BS-FC-311] | µg/mL | 1.53 |
| COc1ccc2cc1Oc1ccc(cc1)C[C@H]1c3cc(c(OC)cc3CCN1C)Oc1c(OS(=O)(=O)c3ccccc3)c(OC)cc3c1[C@H](C2)N(C)CC3 [BS-FC-104] | µg/mL | 1.92 |
| COc1ccc2cc1Oc1ccc(cc1)C[C@H]1c3cc(c(OC)cc3CCN1C)Oc1c(OCC(O)CN3CCN(C#N)CC3)c(OC)cc3c1[C@H](C2)N(C)CC3 (stereo partly drawn) [BS-FC-421] | µg/mL | 1.15 |
| COc1ccc2cc1Oc1ccc(cc1)C[C@H]1c3cc(c(OC)cc3CCN1C)Oc1c(OC(=O)c3ccc(N(C)C)cc3)c(OC)cc3c1[C@H](C2)N(C)CC3 [BS-FC-308] | µg/mL | 1.03 |
